Cited source: PubChem BioAssay

# maps each entry to its cell count
test: inhibitors of TNFa-induced NFkB p65 translocation, primary screen, imaging, HUVEC, MLSMR starter and 10KST1 sets (AID 438); details: HUVEC TNFa-induced p65 nuclear translocation; measured here: nuclei count (cytotoxicity indicator), at 2.08 µM;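 note: compound added about 3h40 before a 20 min TNFalpha stimulation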
Respond with the number and no other words.

1. COc1ccc(NC(=O)CN(c2ccc(C)cc2)S(C)(=O)=O)c(OC)c1
498
2. Cc1ccc(S(=O)(=O)NC(=O)Nc2ncc3c(n2)CC(c2ccco2)CC3=O)cc1 (stereo not given)
662
3. CC1CCCCC1NC(=O)CN1CCN(Cc2ccccc2Cl)C1=O (stereo not given)
667
4. N#Cc1nc(COc2ccccc2F)oc1NCCCn1ccnc1
465
5. COc1ccc(CNc2nc(NCc3ccc(OC)cc3)n(S(C)(=O)=O)n2)cc1
292
6. CC(C)Cc1nc(N2CCN(C(=O)Cc3ccccc3)CC2)c(C#N)c2c1COC(C)(C)C2
601

Read the entry `COc1cc(C2Nc3cccc4cccc(c34)N2)cc(OC)c1OC(C)=O` and write its reported cell count.
498

Read the entry `COc1ccc(N2CCN(c3oc(COc4ccc(Cl)cc4)nc3C#N)CC2)cc1` and write its reported cell count.
374

Read the entry `COc1ccc(-c2noc(-c3ccccc3C(=O)NCc3ccco3)n2)cc1` and write its reported cell count.
331

Read the entry `Cc1noc(C)c1COC(=O)c1ccccc1Oc1ccccc1` and write its reported cell count.
583
